System: Jurkat cells
Protocol Description: (r) Cell cytotoxicity assay
Type: cell-based, human
Condition: 1 μg/mL, 24 hours

Compound: CCC(=O)NS(=O)(=O)c1ccc(Nc2nccc(Oc3ccc(NC(=O)Nc4cc(C(C)(C)C)cc(NS(C)(=O)=O)c4OC)c4ccccc34)n2)cc1OC [17(bk)]
Unit Label: %
% Viability at 1 μg/mL: 93.0
--
Compound: COc1cc(Nc2cc(Oc3ccc(NC(=O)Nc4cc(C(C)(C)C)cc(NS(C)(=O)=O)c4OC)c4ccccc34)ccn2)cc(OC)c1C(=O)NCC1CCN(C)CC1 [17(ca)]
Unit Label: %
% Viability at 1 μg/mL: 92.6
--
Compound: COc1cc(Nc2cc(Oc3ccc(NC(=O)Nc4cc(C(C)(C)C)cc(NS(C)(=O)=O)c4OC)c4ccccc34)ccn2)cc(OC)c1C(=O)NCCN1CCOCC1 [17(ae)]
Unit Label: %
% Viability at 1 μg/mL: 93.1
--
Compound: COc1cc(Nc2cc(Oc3ccc(NC(=O)Nc4cc(C(C)(C)C)cc(NS(C)(=O)=O)c4OC)c4ccccc34)ccn2)cc(OC)c1C(=O)NCCN1CCN(CCO)CC1 [Example 37]
Unit Label: %
% Viability at 1 μg/mL: 52.9
--
Compound: COc1cc(Nc2nccc(Oc3ccc(NC(=O)Nc4cc(C(C)(C)C)cc(NS(C)(=O)=O)c4OC)c4ccccc34)n2)ccc1C(=O)NCCCN1CCOCC1 [17(ao)]
Unit Label: %
% Viability at 1 μg/mL: 89.2
--
Compound: COc1cc(Nc2cc(Oc3ccc(NC(=O)Nc4cc(NS(C)(=O)=O)cc(C(C)(C)C)c4)c4ccccc34)ccn2)ccc1C(=O)NCCCN1CCN(C)CC1 [17(bp)]
Unit Label: %
% Viability at 1 μg/mL: 93.2
--
Compound: COc1c(NC(=O)Nc2ccc(Oc3ccnc(Nc4ccc(C(=O)NCCCN5CCOCC5)c(O)c4)c3)c3ccccc23)cc(C(C)(C)C)cc1NS(C)(=O)=O [Example 29]
Unit Label: %
% Viability at 1 μg/mL: 101.2
--
Compound: COc1cc(Nc2cc(Oc3ccc(NC(=O)Nc4cc(C(C)(C)C)cc(NS(C)(=O)=O)c4OC)c4ccccc34)ccn2)ccc1C(=O)NCCN1CC[C@@H](O)C1 [17(cr)]
Unit Label: %
% Viability at 1 μg/mL: 81.1
--
Compound: COc1cc(Nc2cc(Oc3ccc(NC(=O)Nc4cc(C(C)(C)C)cc(NS(C)(=O)=O)c4OC)c4ccccc34)ccn2)ccc1C(=O)NC[C@H](O)[C@@H](O)[C@H](O)[C@H](O)CO [17(bw)]
Unit Label: %
% Viability at 1 μg/mL: 94.5
--
Compound: COc1c(NC(=O)Nc2ccc(Oc3ccnc(Nc4ccc(C(=O)NCCN5CCOCC5)c(N(C)C)c4)c3)c3ccccc23)cc(C(C)(C)C)cc1NS(C)(=O)=O [Example 21]
Unit Label: %
% Viability at 1 μg/mL: 101.2
--
Compound: COc1cc(Nc2cc(Oc3ccc(NC(=O)Nc4cc(NS(C)(=O)=O)cc(C(C)(C)C)c4)c4ccccc34)ccn2)ccc1C(=O)NCCC1CCN(C)CC1 [17(bs)]
Unit Label: %
% Viability at 1 μg/mL: 90.9

Origin of measurements: patent US10125100B2
